# Test system: T-47D breast
# method: NCI-60 one-dose screen, 48 h
# settings: 10 µM unless noted
Compounds without any hit were thinned out: in the full panel of roughly 83,000, 20% have a hit. Active and inactive are the calls of the source. Rule for the calls: active = growth percent below 10; inactive = the rest.
Outcome codes: TRUE for active, FALSE for inactive

compound | systemUnderTest | answerLabel
Cc1nc(-c2ccc(Cl)cc2)ccc1NC(=O)Nc1cccc(C(F)(F)F)c1 | T-47D breast | FALSE
Cc1ccc(=O)n(-c2ccc(Br)cc2F)c1 | T-47D breast | FALSE
Nc1ccc(S(=O)(=O)Nc2cc(I)cc(I)c2)cc1 | T-47D breast | FALSE
CC(Cc1cccc(C(F)(F)F)c1)NCCOC(=O)c1ccccc1 (configuration not stated) | T-47D breast | FALSE
COc1cc(Nc2ncccc2C(=O)Nc2nc3ccc(F)cc3s2)cc(OC)c1OC | T-47D breast | FALSE
O=[N+]([O-])c1cccc(C(c2ccccc2)c2ccccc2)c1 | T-47D breast | FALSE
COc1ccccc1N1CCN(CCCOc2ccc(OCCCN3CCN(c4ccccc4OC)CC3)c(C(=O)c3cc(OC)c(OC)c(OC)c3)c2)CC1 | T-47D breast | FALSE
O=C(NOC1OC(CO)C(O)C(O)C1O)Nc1ccccc1 (configuration not stated) | T-47D breast | FALSE
O=[N+]([O-])c1cccc(C2c3ccccc3Oc3ccccc32)c1 | T-47D breast | FALSE
CCn1c(SCC(=O)c2ccc(Br)cc2)nnc1-c1cc2c([nH]c3ccccc32)c(-c2cccc(O)c2)n1 | T-47D breast | FALSE
N#Cc1c(N)nc2c(c1N)C(c1ccc(Cl)cc1)C1=C(CCCC1=O)N2c1sc2c(c1C#N)CCCC2 (configuration not stated) | T-47D breast | FALSE
O=C(Nc1cccc(-n2ccc3c(NC(=O)c4ccccc4)nccc32)c1)c1cc(N2CCOCC2)cc(C(F)(F)F)c1 | T-47D breast | FALSE
CCC1(C(N)=O)CC2C=CC1CC2 (configuration not stated) | T-47D breast | FALSE
O=c1c2ccccc2sc2c(NCCN3CCOCC3)nc3ccccc3c12 | T-47D breast | FALSE
CN[C@@H](CCCNC(N)=NC/C=C(/C)CCC=C(C)C)C(=O)N(C)[C@@H](CCCNC(N)=NCC=C(C)C)C(=O)N[C@H](C)[C@H](OS(=O)(=O)O)c1ccc(OS(=O)(=O)O)c(COS(=O)(=O)O)c1 | T-47D breast | FALSE
c1ccc(OCC[P+](c2ccccc2)(c2ccccc2)c2ccccc2)cc1 | T-47D breast | TRUE
COC(OC)C1(c2ccccc2)NC(=O)NC1=O (configuration not stated) | T-47D breast | FALSE
COc1ccc(Cl)cc1NC(=O)c1cc2c([nH]1)-c1nc(N)sc1CCC2 | T-47D breast | FALSE
O=c1cc(Cl)[nH]c(=O)[nH]1 | T-47D breast | FALSE
COC(=O)c1oc2c(C(C)=O)c(OCCCN(C)C)ccc2c1C | T-47D breast | FALSE
O=C1OC(=O)C2C3CC(c4ccccc43)C12 (configuration not stated) | T-47D breast | FALSE
O=C(Nc1ccc(F)cc1)Nc1ccc(Br)c(C(F)(F)F)c1 | T-47D breast | TRUE
CC(=O)Cc1cccnc1 | T-47D breast | FALSE
COc1ccc(-c2nn(-c3ccc(NC(=O)c4cc(C(F)(F)F)cc(C(F)(F)F)c4)cc3)cc2-c2ccncc2)cc1Cl | T-47D breast | FALSE
O=C(c1ccccc1)[C@H]1[C@@H]2CCCN2[C@]2(C(=O)Nc3ccc(F)cc32)[C@]12C(=O)Nc1ccccc12 | T-47D breast | FALSE
COc1cc2c(/C=C3/C(=O)Nc4ccc(O)cc43)c(Cl)n(Cc3cc(OC)c(OC)c(OC)c3)c2cc1C | T-47D breast | FALSE
CCc1c2cc(Cl)ccc2n2cc(Cc3ccccc3)[nH]c(=O)c12 | T-47D breast | FALSE
Cc1ncc(CO)c(C(=O)O)c1O | T-47D breast | FALSE
CN(C)c1ccc(/C=c2\s/c(=C\C(=O)C(C)(C)C)[nH]c2=O)cc1 | T-47D breast | FALSE
COc1ccc(Cn2cc(COc3ccc4c5ccnc(C)c5n(CCCc5ccccc5)c4c3)nn2)cc1 | T-47D breast | FALSE
COc1ccc(/C=C/C(=O)c2ccc(NC(=O)CSc3nnc(-c4cc(OC)c(OC)c(OC)c4)o3)cc2)cc1 | T-47D breast | TRUE
Clc1ccc2c(NCCNc3nc(Cl)nc4ccccc34)ccnc2c1 | T-47D breast | TRUE
Oc1ccccc1/C=N/c1ccccn1 | T-47D breast | FALSE
COc1ccccc1C(OC(C)=O)OC(C)=O | T-47D breast | FALSE
Cn1c(I)c(C#C[Si](C)(C)C)c(=O)[nH]c1=O | T-47D breast | FALSE
COc1ccc2c(c1)C(=O)/C(=C/c1cccc(OCC(=O)c3ccccc3)c1)O2 | T-47D breast | TRUE
CC(C)(C)OC(=O)NCc1cccc(N=C=S)c1 | T-47D breast | FALSE
O=C(Nc1ccc(-n2ccc3c(NC(=O)c4ccccc4)nccc32)cc1)Nc1ccc(Cl)c(Cl)c1 | T-47D breast | FALSE
CO[C@H]1/C=C/C=C/C=C/C[C@H](OC(=O)[C@@H](C)NC(=O)C2CCCCC2)[C@H](C)[C@@H](O)/C(C)=C\CCC2=CC(=O)C=C(NC(=O)C1)C2=O | T-47D breast | TRUE
CSc1ccc(C(=O)C[n+]2cccc(C)c2)cc1 | T-47D breast | FALSE
c1cncc(-c2nc3ccccc3[nH]2)c1 | T-47D breast | FALSE
CS(=O)(=O)OCC(COS(C)(=O)=O)C(c1ccccc1)c1ccccc1 | T-47D breast | FALSE
